Tested on: ALK (h)
Assay type: biochemical, human
Details: 0.1 μM test compound, 10 μM ATP; remaining activity relative to DMSO control = 100%

QUERY SMILES: C=C(CN1CCOCC1)C(=O)Nc1cccc(Nc2ncc(Cl)c(Nc3ccccc3C(=O)C(=O)N(C)C)n2)c1
MEASURED ON: ALK (h)
UNIT ABBREVIATION: %
Activity (control) % ALK (h): 21
//
QUERY SMILES: C=C(CN(C)CCN(C)C)C(=O)Nc1ccc(OC)c(Nc2ncc(Cl)c(Nc3ccccc3C(=O)C(=O)N(C)C)n2)c1
MEASURED ON: ALK (h)
UNIT ABBREVIATION: %
Activity (control) % ALK (h): 19
//
QUERY SMILES: C=CC(=O)Nc1cc(Nc2ncc(Cl)c(Nc3ccccc3C(=O)C(=O)N(C)C)n2)ccc1N1CCN(C)CC1
MEASURED ON: ALK (h)
UNIT ABBREVIATION: %
Activity (control) % ALK (h): 8
//
QUERY SMILES: C=C(CN(C)C)C(=O)Nc1ccc(OC)c(Nc2ncc(Cl)c(Nc3ccccc3C(=O)C(=O)N(C)C)n2)c1
MEASURED ON: ALK (h)
UNIT ABBREVIATION: %
Activity (control) % ALK (h): 36
//
QUERY SMILES: COc1cc(Nc2ncc(Cl)c(Nc3ccccc3C(=O)C(=O)N(C)C)n2)ccc1N1CCC(N(C)C)CC1
MEASURED ON: ALK (h)
UNIT ABBREVIATION: %
Activity (control) % ALK (h): 3
//
QUERY SMILES: C=CC(=O)Nc1cc(Nc2ncc(Cl)c(Nc3ccccc3C(=O)C(=O)N(C)C)n2)ccc1OCCN(C)C
MEASURED ON: ALK (h)
UNIT ABBREVIATION: %
Activity (control) % ALK (h): 6
//
QUERY SMILES: C=CC(=O)Nc1ccc(OC)c(Nc2ncc(Cl)c(Nc3ccccc3C(=O)C(=O)N3CCN(C)CC3)n2)c1
MEASURED ON: ALK (h)
UNIT ABBREVIATION: %
Activity (control) % ALK (h): 8
//
QUERY SMILES: COc1cc(Nc2ncc(Cl)c(Nc3ccccc3C(=O)C(=O)N(C)C)n2)ccc1N1CCN(C(C)=O)CC1
MEASURED ON: ALK (h)
UNIT ABBREVIATION: %
Activity (control) % ALK (h): 6
//
QUERY SMILES: C=CC(=O)Nc1cc(Nc2ncc(C)c(Nc3ccccc3C(=O)C(=O)N(C)C)n2)ccc1OC
MEASURED ON: ALK (h)
UNIT ABBREVIATION: %
Activity (control) % ALK (h): 35
//
QUERY SMILES: CCC(=O)Nc1cc(Nc2ncc(Cl)c(Nc3ccccc3C(=O)C(=O)N(C)C)n2)ccc1OCCN(C)C
MEASURED ON: ALK (h)
UNIT ABBREVIATION: %
Activity (control) % ALK (h): 8
//
QUERY SMILES: C=CC(=O)Nc1cc(Nc2ncc(Cl)c(Nc3ccccc3C(=O)C(=O)NC)n2)ccc1OC
MEASURED ON: ALK (h)
UNIT ABBREVIATION: %
Activity (control) % ALK (h): 47
//
QUERY SMILES: COc1ccc(NC(=O)/C=C/CN2CCCCC2)cc1Nc1ncc(Cl)c(Nc2ccccc2C(=O)C(=O)N(C)C)n1
MEASURED ON: ALK (h)
UNIT ABBREVIATION: %
Activity (control) % ALK (h): 14
//
QUERY SMILES: C=C(CN1CCCCC1)C(=O)Nc1cccc(Nc2ncc(Cl)c(Nc3ccccc3C(=O)C(=O)N(C)C)n2)c1
MEASURED ON: ALK (h)
UNIT ABBREVIATION: %
Activity (control) % ALK (h): 19
//
QUERY SMILES: C=CC(=O)Nc1cc(Nc2ncc(Cl)c(Nc3ccccc3C(=O)C(=O)N(C)C)n2)c(OC)cc1F
MEASURED ON: ALK (h)
UNIT ABBREVIATION: %
Activity (control) % ALK (h): 35
//
QUERY SMILES: CN(C)C/C=C/C(=O)Nc1cccc(Nc2ncc(Cl)c(Nc3ccccc3C(=O)C(=O)N(C)C)n2)c1
MEASURED ON: ALK (h)
UNIT ABBREVIATION: %
Activity (control) % ALK (h): 10

----------
Tested on: EGFR (T790M, L858R) (h)
Format: biochemical, human
Activity (control) % EGFR (T790M, L858R) (h) values, listed per item
TEST READOUT: Activity (control) % EGFR (T790M, L858R) (h) (%)

COMPOUND: COc1cc(N2CCC(N(C)C)CC2)ccc1Nc1ncc(Cl)c(Nc2ccccc2C(=O)C(N)=O)n1
TEST VALUE: 2
--
COMPOUND: COc1cc(Nc2ncc(Cl)c(Nc3ccccc3C(=O)C(=O)N(C)C)n2)ccc1N1CCC(N(C)C)CC1
TEST VALUE: 2
--
COMPOUND: C=CC(=O)Nc1ccc(OC)c(Nc2ncc(Cl)c(Nc3ccccc3C(=O)C(=O)N(C)C)n2)c1
TEST VALUE: 9
--
COMPOUND: C=CC(=O)Nc1cccc(Nc2nc(Nc3ccc(N4CCN(C(C)=O)CC4)cc3OC)ncc2C(F)(F)F)c1 [CO-1686, reference compound]
TEST VALUE: 7
--
COMPOUND: COc1cc(Nc2ncc(Cl)c(Nc3ccccc3C(=O)C(=O)N(C)C)n2)ccc1N1CCN(C)CC1
TEST VALUE: 13

----------
Activity (control) % EGFR (T790M) (h) values, listed per item
Test system: EGFR (T790M) (h)
Assay type: biochemical, human
Details: 0.1 μM test compound, 10 μM ATP; remaining activity relative to DMSO control = 100%

MOLECULE: CN(C)C/C=C/C(=O)Nc1cccc(Nc2ncc(Cl)c(Nc3ccccc3C(=O)C(=O)N(C)C)n2)c1 [Example 114]
UNIT ABBREVIATION: %
Activity (control) % EGFR (T790M) (h): 47

MOLECULE: C=CC(=O)Nc1cc(Nc2ncc(Cl)c(Nc3ccccc3C(=O)C(=O)N(C)C)n2)ccc1OC1CCOC1 (stereo not shown) [Example 124]
UNIT ABBREVIATION: %
Activity (control) % EGFR (T790M) (h): 78

MOLECULE: C=C(CN1CCCC1)C(=O)Nc1ccc(OC)c(Nc2ncc(Cl)c(Nc3ccccc3C(=O)C(=O)N(C)C)n2)c1 [Example 97]
UNIT ABBREVIATION: %
Activity (control) % EGFR (T790M) (h): 2

MOLECULE: C=C(CN(C)C)C(=O)Nc1ccc(OC)c(Nc2ncc(Cl)c(Nc3ccccc3C(=O)C(=O)N(C)C)n2)c1 [Example 78]
UNIT ABBREVIATION: %
Activity (control) % EGFR (T790M) (h): 2

MOLECULE: C=CC(=O)Nc1ccc(OC)c(Nc2ncc(Cl)c(Nc3ccccc3C(=O)C(=O)N3CCN(C)CC3)n2)c1 [Example 89]
UNIT ABBREVIATION: %
Activity (control) % EGFR (T790M) (h): 5

MOLECULE: C=CC(=O)Nc1ccc(N2CCN(C)CC2)c(Nc2ncc(Cl)c(Nc3ccccc3C(=O)C(=O)N(C)C)n2)c1 [Example 135]
UNIT ABBREVIATION: %
Activity (control) % EGFR (T790M) (h): 96

MOLECULE: COc1cc(Nc2ncc(Cl)c(Nc3ccccc3C(=O)C(=O)N(C)C)n2)ccc1N1CCN(C(C)=O)CC1 [Example 94]
UNIT ABBREVIATION: %
Activity (control) % EGFR (T790M) (h): 45

----------
Tested on: EGFR (L858R) (h)
Type: biochemical, human
Settings: 0.1 μM test compound, 10 μM ATP; remaining activity relative to DMSO control = 100%
Criterion: Activity (control) % EGFR (L858R) (h) strictly less than 50%. Met: 1 (yes). Not met: 0 (no).

MOLECULE: C=C(CN1CCCCC1)C(=O)Nc1ccc(OC)c(Nc2ncc(Cl)c(Nc3ccccc3C(=O)C(=O)N(C)C)n2)c1
CLASS LABEL: 1 (yes)

MOLECULE: CCC(=O)Nc1cc(Nc2ncc(Cl)c(Nc3ccccc3C(=O)C(=O)N(C)C)n2)ccc1OCCN(C)C
CLASS LABEL: 0 (no)

MOLECULE: COc1ccc(NC(=O)/C=C/CN2CCOCC2)cc1Nc1ncc(Cl)c(Nc2ccccc2C(=O)C(=O)N(C)C)n1
CLASS LABEL: 1 (yes)

MOLECULE: COc1cc(N2CCN(C(C)=O)CC2)ccc1Nc1ncc(Cl)c(Nc2ccccc2C(=O)C(=O)N(C)C)n1
CLASS LABEL: 0 (no)

MOLECULE: COc1ccc(NC(=O)/C=C/CN(C)C)cc1Nc1ncc(Cl)c(Nc2ccccc2C(=O)C(=O)N(C)C)n1
CLASS LABEL: 1 (yes)

MOLECULE: COc1cc(Nc2ncc(Cl)c(Nc3ccccc3C(=O)C(=O)N(C)C)n2)ccc1N1CCOCC1
CLASS LABEL: 0 (no)

MOLECULE: CCN(CC)C(=O)C(=O)c1ccccc1Nc1nc(Nc2ccc(N3CCN(C)CC3)c(OC)c2)ncc1Cl
CLASS LABEL: 0 (no)

MOLECULE: C=CC(=O)Nc1cc(Nc2ncc(Cl)c(Nc3ccccc3C(=O)C(=O)N(C)C)n2)ccc1OC1CCOC1 (stereo not drawn)
CLASS LABEL: 0 (no)

MOLECULE: C=C(CN(C)C)C(=O)Nc1ccc(OC)c(Nc2ncc(Cl)c(Nc3ccccc3C(=O)C(=O)N(C)C)n2)c1
CLASS LABEL: 1 (yes)

MOLECULE: C=C(CN1CCCCC1)C(=O)Nc1cccc(Nc2ncc(Cl)c(Nc3ccccc3C(=O)C(=O)N(C)C)n2)c1
CLASS LABEL: 0 (no)

MOLECULE: C=CC(=O)Nc1cc(Nc2ncc(C)c(Nc3ccccc3C(=O)C(=O)N(C)C)n2)ccc1OC
CLASS LABEL: 0 (no)

MOLECULE: C=CC(=O)Nc1ccc(OC)c(Nc2ncc(Cl)c(Nc3ccccc3C(=O)C(=O)N3CCN(C)CC3)n2)c1
CLASS LABEL: 1 (yes)

MOLECULE: C=C(CN1CCCCC1)C(=O)Nc1cc(Nc2ncc(Cl)c(Nc3ccccc3C(=O)C(=O)N(C)C)n2)ccc1N1CCOCC1
CLASS LABEL: 0 (no)

MOLECULE: COc1cc(Nc2ncc(Cl)c(Nc3ccccc3C(=O)C(=O)N(C)C)n2)ccc1N1CCN(C(C)=O)CC1
CLASS LABEL: 0 (no)

MOLECULE: C=C(CN(C)CCN(C)C)C(=O)Nc1cccc(Nc2ncc(Cl)c(Nc3ccccc3C(=O)C(=O)N(C)C)n2)c1
CLASS LABEL: 0 (no)

MOLECULE: CN(C)C(=O)C(=O)c1ccccc1Nc1nc(Nc2ccc(F)c(NC(=O)CCN3CCOCC3)c2)ncc1Cl
CLASS LABEL: 0 (no)

MOLECULE: COc1ccc(NC(=O)/C=C/CN2CCCCC2)cc1Nc1ncc(Cl)c(Nc2ccccc2C(=O)C(=O)N(C)C)n1
CLASS LABEL: 1 (yes)

MOLECULE: C=C(CN(C)CCN(C)C)C(=O)Nc1ccc(OC)c(Nc2ncc(Cl)c(Nc3ccccc3C(=O)C(=O)N(C)C)n2)c1
CLASS LABEL: 1 (yes)

MOLECULE: C=C(CN1CCCC1)C(=O)Nc1ccc(OC)c(Nc2ncc(Cl)c(Nc3ccccc3C(=O)C(=O)N(C)C)n2)c1
CLASS LABEL: 1 (yes)

MOLECULE: C=CC(=O)Nc1cc(Nc2ncc(Cl)c(Nc3ccccc3C(=O)C(=O)NC)n2)ccc1OC
CLASS LABEL: 0 (no)

MOLECULE: C=C(CN1CCOCC1)C(=O)Nc1cccc(Nc2ncc(Cl)c(Nc3ccccc3C(=O)C(=O)N(C)C)n2)c1
CLASS LABEL: 0 (no)

MOLECULE: C=CC(=O)Nc1cc(Nc2ncc(Cl)c(Nc3ccccc3C(=O)C(=O)N(C)C)n2)ccc1N1CCN(C)CC1
CLASS LABEL: 0 (no)

MOLECULE: CN(C)C/C=C/C(=O)Nc1cccc(Nc2ncc(Cl)c(Nc3ccccc3C(=O)C(=O)N(C)C)n2)c1
CLASS LABEL: 0 (no)

MOLECULE: C=CC(=O)Nc1cc(Nc2ncc(Cl)c(Nc3ccccc3C(=O)C(=O)N(C)CCN(C)C)n2)ccc1OC
CLASS LABEL: 0 (no)
